experiment: molar heat capacity at constant pressure; conditions: 314.15 K; 101.33 kPa; Crystal; Small sample (50 mg) DSC
Quick rule for you: molar heat capacity at constant pressure under 200 J/K/mol gets Criterion met, anything else gets Criterion not met.

Solved entries:
> print(dat)
                                   compound              class
1  O[C@H]1[C@H](O)[C@@H](O)[C@H](O)[C@@H](O)[C@H]1O [cis-1,2,3,5-trans-4,6-cyclohexanehexol]  Criterion not met
2                    OC[C@@H](O)[C@@H](O)CO      Criterion met
3  OC[C@H](O)C(O)[C@@H](O)CO [L-(-)-arabitol]  Criterion not met
4    OC[C@@H](O)[C@@H](O)[C@H](O)[C@H](O)CO  Criterion not met
5            OC[C@@H](O)[C@H](O)[C@@H](O)CO  Criterion not met

Now turn to the next compound.
query: Input OC[C@@H](O)C(O)[C@H](O)CO ; condition: molar heat capacity at constant pressure strictly below 200 J/K/mol. Does it hold?
result: Criterion not met
